# ASSAYED_TARGET: rat GPR14 (U-II receptor) (Rattus norvegicus, UniProt P49684)
# Construct: expressed in transfected cells
# PROTOCOL_DESCRIPTION: Rat UII Calcium Mobilization FLIPR Assay
# Format: cell-based
# MEASUREMENT_CONTEXT: average value for the compound tested; read-out: Rat UII FLIPR Average IC50
Field: pIC50. Provide a value for each of the molecules that follow.
Numbers only, as −log10 of the molar value.

COc1ccc([C@@H](CCCNc2ncccn2)N2C(=O)c3cccc(N4CCN([C@H](C)c5ccccc5)CC4)c3C2=O)cc1OC [Cpd 145]	7.80
COc1ccc([C@@H](CCCNS(=O)(=O)c2cccs2)N2C(=O)c3cccc(N4CCN(C)CC4)c3C2=O)cc1OC [Cpd 169]	7.80
COc1ccc(C(CCCNS(=O)(=O)c2cc(S(=O)(=O)c3ccccc3)cs2)N2C(=O)c3cccc(N4CCN([C@H](C)c5ccccc5)CC4)c3C2=O)cc1OC (stereo partly drawn) [Cpd 92]	6.04
CCN1CCN(c2cccc3c2C(=O)N([C@H](CCCNS(=O)(=O)c2cn(C)c(C)n2)c2ccc(OC)c(OC)c2)C3=O)CC1 [Cpd 203]	6.85

Kindly give each listed record's pIC50.
1. COc1ccc(C(CCCNC(=O)Nc2cccs2)N2C(=O)c3cccc(N4CCN([C@H](C)c5ccccc5)CC4)c3C2=O)cc1OC (stereo partly drawn) [Cpd 120]
2. COc1ccc([C@@H](CCCNC(=O)c2cn(C)cn2)N2C(=O)c3cccc(N4CCN([C@H](C)c5ccccc5)CC4)c3C2=O)cc1OC [Cpd 153]

Return:
6.51
7.89

* * *

Field: Ki. Provide a value for each of the molecules that follow.
# ASSAYED_TARGET: endogenous human UII receptor (Homo sapiens)
# Sequence (Q9UKP6 whole entry): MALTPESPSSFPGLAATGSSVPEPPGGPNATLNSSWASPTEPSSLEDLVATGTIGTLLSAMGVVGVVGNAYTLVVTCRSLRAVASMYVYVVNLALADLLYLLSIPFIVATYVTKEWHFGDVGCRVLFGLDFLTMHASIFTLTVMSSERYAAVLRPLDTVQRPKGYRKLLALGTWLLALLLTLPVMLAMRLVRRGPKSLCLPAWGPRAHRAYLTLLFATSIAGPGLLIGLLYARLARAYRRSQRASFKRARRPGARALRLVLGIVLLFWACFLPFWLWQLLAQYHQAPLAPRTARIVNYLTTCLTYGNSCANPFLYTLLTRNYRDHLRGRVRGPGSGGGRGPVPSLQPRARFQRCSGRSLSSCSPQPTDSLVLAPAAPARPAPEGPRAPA
# PROTOCOL_DESCRIPTION: Human Radioligand Binding Assay ((^125I)-U-II binding to human skeletal muscle myoblasts)
Give bare numbers, in nM.

Worked examples follow.
COc1ccc([C@@H](CCCNS(=O)(=O)c2c(C)noc2C)N2C(=O)c3cccc(N4CCN([C@H](C)c5ccccc5)CC4)c3C2=O)cc1OC	46
COc1ccc(C(CCCNS(=O)(=O)c2cccc3cccnc23)N2C(=O)c3cccc(N4CCN([C@H](C)c5ccccc5)CC4)c3C2=O)cc1OC (stereo partly drawn)	19

Enquiry: State the recorded Ki for this entry: COc1ccc(C(CNC(=O)Cc2ccncc2)N2C(=O)c3cccc(N4CCN([C@H](C)c5ccccc5)CC4)c3C2=O)cc1OC (stereo partly drawn)
Return: 99

* * *

# ASSAYED_TARGET: rat GPR14 (U-II receptor) (Rattus norvegicus, UniProt P49684)
# Construct: expressed in transfected cells
# PROTOCOL_DESCRIPTION: Rat UII Calcium Mobilization FLIPR Assay
# Format: cell-based
# MEASUREMENT_CONTEXT: average value for the compound tested; read-out: Rat UII FLIPR Average IC50
# Text: To derive these cells, the complete coding sequence of rat U-II (Genbank Accession No. U32673) was amplified by nested PCR from rat heart marathon-Ready cDNA. […] The PCR products were cloned into pcDNA3 (Invitrogen) digested with EcoR I and Xba I. Clones containing rat U-II receptor were verified by complete sequencing of the U-II receptor insert to ensure a lack of PCR-introduced errors. The constructed vector was transfected into CHO cells by using lipofectamine (GIBCO BRL). […]
OBSERVED_PROPERTY: pIC50
Give bare numbers, as −log10 of the molar value.

CCN1CCN(c2cccc3c2C(=O)N([C@H](CCCOCC(C)C)c2ccc(OC)c(OC)c2)C3=O)CC1 [Cpd 210]	5.21
COc1ccc(C(CCCNS(=O)(=O)c2cc(C)oc2C(F)(F)F)N2C(=O)c3cccc(N4CCN([C@H](C)c5ccccc5)CC4)c3C2=O)cc1OC (stereo partly drawn) [Cpd 89]	6.27
COc1ccc([C@@H](CCCNC(=O)C2CCC2)N2C(=O)c3cccc(N4CCN([C@H](C)c5ccccc5)CC4)c3C2=O)cc1OC [Cpd 178]	7.89

Kindly give each listed record's pIC50.
1. COc1ccc(C(CCCNS(=O)(=O)c2csc3ccccc23)N2C(=O)c3cccc(N4CCN([C@H](C)c5ccccc5)CC4)c3C2=O)cc1OC (stereo partly drawn) [Cpd 116]
2. CCN1CCN(c2cccc3c2C(=O)N(C(CC2CCN(S(=O)(=O)O)CC2)c2ccc(OC)c(OC)c2)C3=O)CC1 (stereo not drawn) [Cpd 233]
3. COc1ccc([C@@H](CCCNC(=O)C(C)C)N2C(=O)c3cccc(N4CCN([C@H](C)c5ccccc5)CC4)c3C2=O)cc1OC [Cpd 174]

Return:
1: 5.85; 2: 6.18; 3: 7.96

* * *

# ASSAYED_TARGET: rat GPR14 (U-II receptor) (Rattus norvegicus, UniProt P49684)
# Construct: expressed in transfected cells
# Sequence (P49684 1-386): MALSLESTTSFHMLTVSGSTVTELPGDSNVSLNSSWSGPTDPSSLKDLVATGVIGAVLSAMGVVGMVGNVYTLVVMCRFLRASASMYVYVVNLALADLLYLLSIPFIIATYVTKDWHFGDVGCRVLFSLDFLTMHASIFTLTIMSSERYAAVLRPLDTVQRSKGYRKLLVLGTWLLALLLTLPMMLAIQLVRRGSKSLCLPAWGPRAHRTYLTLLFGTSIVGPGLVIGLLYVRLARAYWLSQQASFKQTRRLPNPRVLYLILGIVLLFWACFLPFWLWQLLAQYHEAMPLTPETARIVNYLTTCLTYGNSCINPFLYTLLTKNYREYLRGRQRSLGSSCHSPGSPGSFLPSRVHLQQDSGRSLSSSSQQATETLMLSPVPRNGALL
# PROTOCOL_DESCRIPTION: Rat UII Calcium Mobilization FLIPR Assay
# Assay type: cell-based
# MEASUREMENT_CONTEXT: Inhibition of Acetyl-cyclic[Cys-Phe-Trp-Lys-(2-Nal)-Cys]-NH2 induced Ca2+ mobilization (FLIPR) in CHO cells transfected with rat UII receptor; read-out: IC50
OBSERVED_PROPERTY: IC50

Worked examples follow.
COc1ccc(CN2C(=O)c3cccc(N4CCN(Cc5ccccc5Cl)CC4)c3C2=O)cc1OC	4.5 µM
CCOc1ccc(CN2C(=O)c3cccc(N4CCN([C@H](C)c5ccccc5)CC4)c3C2=O)cc1OC	1.4 µM

Enquiry: State the recorded IC50 for this entry: "COc1cc(CN2C(=O)c3cccc(N4CCN(Cc5ccccc5)CC4)c3C2=O)ccn1"
Return: 32 µM

* * *

# ASSAYED_TARGET: rat GPR14 (U-II receptor) (Rattus norvegicus, UniProt P49684)
# Construct: expressed in transfected cells
# PROTOCOL_DESCRIPTION: Rat UII Calcium Mobilization FLIPR Assay
# Format: cell-based
# MEASUREMENT_CONTEXT: CHO, 5 min, 10 μM compound; agonist-induced Ca2+ mobilization (FLIPR), CHO cells with rat UII receptor; read-out: % I @ 10
Response key: met means inhibition at 10 µM >= 90%; not met means inhibition at 10 µM < 90%.

COc1cc2c(cc1OC)C(N1C(=O)c3cccc(N4CCN(Cc5ccccc5)CC4)c3C1=O)CC2 (stereo not shown)	met
COc1cc(CN2C(=O)c3cccc(N4CCN([C@H](C)c5ccccc5)CC4)c3C2=O)ccc1O	met
COc1ccc([C@H](CC(=O)O)N2C(=O)c3cccc(N4CCN([C@H](C)c5ccccc5)CC4)c3C2=O)cc1OC	not met
COc1ccc(C(CCCCN)N2C(=O)c3cccc(N4CCN([C@H](C)c5ccccc5)CC4)c3C2=O)cc1OC (stereo partly shown)	met
Cc1nn(C)c(C)c1CN1C(=O)c2cccc(N3CCN(Cc4ccccc4)CC3)c2C1=O	not met

Enquiry: Check this compound for inhibition at 10 µM at or above 90%: "COc1ccc(CN2C(=O)c3cccc(N4CCN(Cc5ccc(Cl)cc5)CC4)c3C2=O)cc1OC"
Return: not met

Enquiry: Check this compound for inhibition at 10 µM at or above 90%: COc1ccc(CN2C(=O)c3cccc(N4CC5CCC(C4)N5C(C)c4ccccc4)c3C2=O)cc1OC (stereo not shown)
Return: not met

Enquiry: Check this compound for inhibition at 10 µM at or above 90%: "COc1ccc([C@@H](C)N2C(=O)c3cccc(N4CCN([C@H](C)c5ccccc5)CC4)c3C2=O)cc1OC"
Return: met

Enquiry: Check this compound for inhibition at 10 µM at or above 90%: "COc1cc(CN2C(=O)c3cccc(N4CC5CCC(C4)N5Cc4ccccc4)c3C2=O)cc(OC)c1"
Return: not met

Enquiry: Check this compound for inhibition at 10 µM at or above 90%: "O=C1c2cccc(N3CC4CCC(C3)N4Cc3ccccc3)c2C(=O)N1Cc1ccncc1"
Return: not met

Enquiry: Check this compound for inhibition at 10 µM at or above 90%: "COc1ccc(CN2C(=O)c3cccc(N4CCN(Cc5cc(F)cc(F)c5)CC4)c3C2=O)cc1OC"
Return: not met

Enquiry: Check this compound for inhibition at 10 µM at or above 90%: "CCCOc1ccc(CN2C(=O)c3cccc(N4CCN([C@H](C)c5ccccc5)CC4)c3C2=O)cc1OC"
Return: not met

Reference source for all entries: patent US8193191B2
